These data points were gathered from patent US20060074243A1.

For each entry below, report its pKi value.
# experimental target: Human recombinant MMP-14 (Homo sapiens, UniProt P50281)
# Construct: The catalytic domain enzyme was expressed in E. coli inclusion bodies, solubilized in urea; made in house
# measurement notes: In vitro MMP inhibition analysis (fluorogenic peptide substrate cleavage), Ki
# Assay type: biochemical
# condition label: Table 1
Numbers only, as −log10 of the molar value.

As a guide, the following entries are already answered.
[
  {
    "input smiles": "O=C(NO)C1(S(=O)(=O)c2ccc(-c3cnc(CCC4CC4)cn3)cc2)CCOCC1",
    "pKi": 5.44
  },
  {
    "input smiles": "O=C(NO)C1(S(=O)(=O)c2ccc(-c3ccc(CCC(F)(F)C(F)(F)F)cn3)cc2)CCOCC1",
    "pKi": 6.28
  },
  {
    "input smiles": "O=C(NO)C1(S(=O)(=O)c2ccc(-c3ccc(CCCC(F)(F)F)cn3)cc2)CCOCC1",
    "pKi": 6.15
  }
]

Kindly consider the entry below.
The reported value for "CC(F)(F)CCc1cnc(-c2ccc(S(=O)(=O)C3(C(=O)NO)CCOCC3)cc2)cn1" in terms of pKi is 5.73
